src = paper PMC8989888

System: SARS-CoV-2
Test: microbe, parasite or virus in culture
Type: cell-based
Conditions: Severe acute respiratory syndrome coronavirus 2, read-out: SARS-CoV-2 EC50
measurement name: pEC50
One number for each entry, as −log10 of the molar value.

Check out these entries, answers already filled in.
CC(C)C[C@H](NC(=O)OCc1cccc(C(F)(F)F)c1)C(=O)N[C@@H](C[C@@H]1CCNC1=O)C(O)S(=O)(=O)O (stereo partly shown) [NK01-63]: 6.84
CC(C)C[C@H](NC(=O)OCc1ccccc1Cl)C(=O)N[C@@H](C[C@@H]1CCNC1=O)C(O)S(=O)(=O)O (stereo partly shown) [EB54]: 7.55
CC(C)C[C@H](NC(=O)OCc1cccc(Cl)c1)C(=O)N[C@@H](C[C@@H]1CCNC1=O)C(O)S(=O)(=O)O (stereo partly shown) [EB46]: 7.33

Problem: I am curious: what pEC50 value has been reported for CC(C)CC(NC(=O)OCc1ccccc1)C(=O)NC(CC1CCNC1=O)C(O)S(=O)(=O)O (stereo not shown) [GC376, reference compound] ?
Solution: 6.84
